variants and their reported abundance fitness
B1: Double-stranded RNA-binding protein Staufen homolog 1, residues 183 to 249; numbered along this chain, O95793 (parent)
chain: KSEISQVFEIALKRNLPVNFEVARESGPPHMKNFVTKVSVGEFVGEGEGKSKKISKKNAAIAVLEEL

variants of: B1; assay: abundance fitness (aPCA) (normalised: wild type 0, dead -1); higher = more abundant; growth selection in yeast, the domain comes from the species named; settings: Homo sapiens
Just the number, please, no unit attached.

>>> endpoint_value("L16D")
-0.54
>>> endpoint_value("N15I")
-0.629
>>> endpoint_value("A59L")
-0.806

Fill in the blank: the reported abundance fitness of K37L is ____.
-0.311

Also K53D ?
-0.192

Input F43P
-0.649

Now consider F8A .
-0.334

Further, for H30Q ?
-0.11

Can you handle E3P next?
-0.023

Again, but for E21G
-0.165

Try the variant P28I
-0.322

One more variant: G45S
-0.146
